- assay-overview: APR_HepG2_P-H2AX_24hr: Apredica 24-hour HepG2 Assay for H2AX Phosphorylation (AID 2282920)
- condition-notes: high-content imaging, actives raise or lower the signal
Activity calls are given as the source filed them. The calls were made as follows: active = hit-call score of the fitted dose curve at least 0.9, where 1 is the maximum; inactive = score below 0.9.
quantity-kind: AC50

Some solved cases for reference:
{"structure-string": "COC(=O)[C@H]1[C@H]2C[C@@H]3c4[nH]c5cc(OC)ccc5c4CCN3C[C@H]2C[C@@H](OC(=O)c2cc(OC)c(OC)c(OC)c2)[C@@H]1OC", "AC50": "30.1 µM (active)"}
{"structure-string": "O=C1c2c(O)cccc2Cc2cccc(O)c21", "AC50": "inactive"}
{"structure-string": "CCCC[C@H]1CN(CC2CCOCC2)C(=O)OC12CCN(C1(C)CCN(C(=O)c3c(C)ncnc3C)CC1)CC2", "AC50": "inactive"}
{"structure-string": "CCc1cc(C2=C(C(=O)O)N(c3ccccc3C(F)(F)F)S(=O)(=O)c3ccccc32)cc2c1OCO2", "AC50": "inactive"}
{"structure-string": "CCCCCCCCCCCCCCCCO", "AC50": "inactive"}

Continue with the next compound.
Lookup: // AC50 lookup, key: "CC(C)(O)c1ccc(CNC(=O)c2cccnc2Oc2ccc(F)cc2)cc1"
Found: inactive

---

- assay-overview: Tanguay_ZF_120hpf_PIG_legacy: (Legacy) Oregon State University Tanguay Lab 120 Hour Post-fertilization zebrafish Assay for Pigmentation Malformation (AID 2283650);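 also: dechorionated Tropical 5D zebrafish embryos exposed singly from 6 to 120 hpf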
Records with an inconclusive call do not appear. The source made the active and inactive calls. The calls were made as follows: active = hit-call score of the fitted dose curve at least 0.9, where 1 is the maximum; inconclusive = response in the unintended direction; inactive = score below 0.9.
Assign a class; possible classes are 1 (yes) = active, 0 (no) = inactive

Recorded results for 8 compounds are shown here.
{"compound": "NC=O", "label-value": "0 (no)"}
{"compound": "CCCCCCC(C=O)=Cc1ccccc1", "label-value": "0 (no)"}
{"compound": "Nc1nc(=S)c2[nH]cnc2[nH]1", "label-value": "0 (no)"}
{"compound": "NC1CCCCC1", "label-value": "0 (no)"}
{"compound": "CC(COCC(C)OC(=O)c1ccccc1)OC(=O)c1ccccc1 (stereo not given)", "label-value": "0 (no)"}
{"compound": "CN(C)C(=O)NC1(c2ccccc2)CCN(CCC[C@]2(c3ccc(Cl)c(Cl)c3)CCCN(C(=O)c3ccccc3)C2)CC1", "label-value": "0 (no)"}
{"compound": "O=[Si]=O", "label-value": "0 (no)"}
{"compound": "S=c1[nH]c2ccccc2s1", "label-value": "1 (yes)"}

Lookup: # fetch the recorded call for Cc1c(C)c2c(c(C)c1O)CCC(C)(COc1ccc(CC3SC(=O)NC3=O)cc1)O2 (stereo not given) here
Found: 0 (no)

Lookup: Which outcome did this test record for the compound "CC(=O)O" ?
Found: 0 (no)

Lookup: Would you mind telling me which call this test gave "CN(C)CCCN(C)CCCN(C)C" ?
Found: 0 (no)

Lookup: Please indicate how the test categorized "Cc1ccc(-c2cc(C(F)(F)F)nn2-c2ccc(S(N)(=O)=O)cc2)cc1" .
Found: 0 (no)

Lookup: # outcome recorded in this test, key = "CS(=O)(=O)c1ccc([C@@H](C[C@H]2CCC(=O)C2)C(=O)Nc2cnccn2)cc1Cl"
Found: 0 (no)

Lookup: Assay result, entry CCCCC(CC)COP(=O)(OCC(CC)CCCC)OCC(CC)CCCC (stereo not given) — outcome?
Found: 0 (no)

Lookup: What call does the record list for "CC1=C(C)S(=O)(=O)CCS1(=O)=O" ?
Found: 0 (no)

Lookup: Check the results log: what was the call for "O=C(O)CN(CC(=O)O)CC(=O)O" ?
Found: 0 (no)

Lookup: So what was the verdict on "CC(C)COC(=O)CCCCC(=O)OCC(C)C" in this test?
Found: 0 (no)
